test system: biotinyl-Leu-oxazolone; experiment: self-aminoacylation, catalytic enhancement (BLO) (fold over background); higher = more active; k-Seq, kA / k0A0; sequences stand for … in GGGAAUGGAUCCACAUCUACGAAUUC…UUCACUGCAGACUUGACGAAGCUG
Fewer inactive variants are shown than the library holds.
Kindly supply the reported self-aminoacylation values for the records listed here.
API note: the answer field is a bare number with no unit suffix.

IN: // self-aminoacylation lookup, key: AUUCACAUAGGUCAACGGGUG [Fam2.2 aminoacylation ribozyme variant]
OUT: 5.9

IN: Given CUACUUCAAAUAAACGGUCUG [Fam1A.1 aminoacylation ribozyme variant] , state its recorded self-aminoacylation.
OUT: 0.71

IN: Which value of self-aminoacylation has been reported for ACACACGUCAAGCAAUCGGUC [Fam1B.1 aminoacylation ribozyme variant] in the records?
OUT: 2.14

IN: Can you look up the measured self-aminoacylation of AAGUAUGCUAAUAGUAGCAAG [Fam3.1 aminoacylation ribozyme variant] for me?
OUT: 1.54

IN: Please look up its self-aminoacylation: CUACUUCGAACAAUCGGUCGG [Fam1A.1 aminoacylation ribozyme variant]
OUT: 1.41

IN: # input sequence: AUUCACGUAGGUCAUCGGGUA [Fam2.2 aminoacylation ribozyme variant] ; wanted: its self-aminoacylation
OUT: 2.95

IN: Can you look up the measured self-aminoacylation of CCACACUCGAAGCAAUCGGUC [Fam1B.1 aminoacylation ribozyme variant] for me?
OUT: 0.764

IN: If you can, please state the reported self-aminoacylation value of AUCACCCUGGUCAUCGAGUGG [Fam2.1 aminoacylation ribozyme variant] .
OUT: 12.7
